targetEntity: CYP2C19 (Homo sapiens)
Sequence (P33261 whole entry): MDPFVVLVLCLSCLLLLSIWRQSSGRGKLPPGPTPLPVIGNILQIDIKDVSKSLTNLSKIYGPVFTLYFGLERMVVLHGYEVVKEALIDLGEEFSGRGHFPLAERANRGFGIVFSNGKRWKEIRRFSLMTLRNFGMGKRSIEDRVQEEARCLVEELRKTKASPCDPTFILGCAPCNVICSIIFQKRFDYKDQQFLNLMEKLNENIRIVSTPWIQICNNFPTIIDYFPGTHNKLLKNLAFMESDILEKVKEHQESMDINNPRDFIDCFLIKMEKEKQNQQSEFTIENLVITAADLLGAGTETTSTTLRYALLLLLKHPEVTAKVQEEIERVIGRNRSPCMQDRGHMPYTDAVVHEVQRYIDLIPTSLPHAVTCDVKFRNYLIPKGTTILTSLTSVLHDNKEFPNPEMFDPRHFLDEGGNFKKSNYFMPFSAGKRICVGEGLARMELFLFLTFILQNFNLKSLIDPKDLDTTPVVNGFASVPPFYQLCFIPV
assay: Inhibition of CYP2C19 (unknown origin) at 10 uM relative to control
Type: ADME
attributeMeasured: inhibition at 10 µM
Returns: string containing the numeric result and its unit.

Prompt line: Returns the measured inhibition at 10 µM for the input molecule. Input: COCC[C@H]1C[C@@H]1c1cncc(OC[C@@H]2CCCN2C)c1.O=C(O)C(F)(F)F
Response line: 21%

* * *

Tested on: CYP3A
assay: Inhibition of CYP3A (unknown origin) at 10 uM relative to control
Format: ADME
settings: human
attributeMeasured: inhibition at 10 µM (%)
Report as a plain number; the unit % is understood.

Prompt line: Returns the measured inhibition at 10 µM for the input molecule. Input: COCC[C@H]1C[C@@H]1c1cncc(OC[C@@H]2CCCN2C)c1.O=C(O)C(F)(F)F
Response line: 10
